# PROTOCOL_DETAILS: xn = mol fraction of the nth substance listed, in the solute-free solvent
# MEASUREMENT_SETUP: 283.15 K; x2 = 0.1
MEASUREMENT_TYPE: solubility (g/100 g solution)
The answer should be written as a number, with no unit following it.

Reference set, count: 3
COMPOUND | solubility (g/100 g solution)
CC(C)C(=O)Nc1ccc([N+](=O)[O-])c(C(F)(F)F)c1 + CCOC(C)=O + CC(C)O | 22.7
Cl.NC1CCSC1=O (centres undefined) + CO + CC#N | 0.153
CC(C)C(=O)Nc1ccc([N+](=O)[O-])c(C(F)(F)F)c1 + CC(C)=O + CC(C)O | 27.7

Return the recorded solubility (g/100 g solution) value; entry: CC(C)C(=O)Nc1ccc([N+](=O)[O-])c(C(F)(F)F)c1 + C1CCOC1 + CC(C)O
24.2

---

# PROTOCOL_DETAILS: xn = mol fraction of the nth substance listed, in the solute-free solvent
# MEASUREMENT_SETUP: 278.15 K; x2 = 0.08908
solubility (g/100 g solution) of 0.02 or higher: Y. Under 0.02: N.

Would you please look over these solved cases?
COMPOUND | LABEL_CLASS
O=C1C=CC(=O)N1c1ccccc1Br + CCO + O | Y
Nc1cc(-c2ccncc2)c[nH]c1=O + CCO + O | N
Nc1ncc(Br)nc1Br + CCO + O | Y
CC(C)C(=O)Nc1ccc([N+](=O)[O-])c(C(F)(F)F)c1 + CCO + O | N

Query compound follows.
Threshold query (solubility (g/100 g solution) >= 0.02) on O=c1cc(CBr)c2ccccc2[nH]1 + CCO + O
Y

---

# PROTOCOL_DETAILS: xn = mol fraction of the nth substance listed, in the solute-free solvent
# MEASUREMENT_SETUP: 283.15 K; x2 = 0.8
Recorded solubility (g/100 g solution) by entry
Reply with just the number.

MOLECULE | MEAS_VALUE
CC(C)C(=O)Nc1ccc([N+](=O)[O-])c(C(F)(F)F)c1 + CC(C)=O + CC(C)O | 52.8
CC(C)C(=O)Nc1ccc([N+](=O)[O-])c(C(F)(F)F)c1 + C1CCOC1 + CC(C)O | 54.5
CC(C)C(=O)Nc1ccc([N+](=O)[O-])c(C(F)(F)F)c1 + CCOC(C)=O + CC(C)O | 37.7

Moving on to another molecule below.
Please supply the value of reported solubility (g/100 g solution) for the item Cl.NC1CCSC1=O (centres undefined) + CO + CC#N
5.63

---

# PROTOCOL_DETAILS: xn = mol fraction of the nth substance listed, in the solute-free solvent
# MEASUREMENT_SETUP: 313.15 K; x2 = 0.3698
MEASUREMENT_TYPE: solubility (g/100 g solution)

Some solved cases for reference:
COMPOUND | solubility (g/100 g solution)
CC(C)C(=O)Nc1ccc([N+](=O)[O-])c(C(F)(F)F)c1 + CCO + O | 7.52
Nc1ncc(Br)nc1Br + CCO + O | 0.656
Nc1cc(-c2ccncc2)c[nH]c1=O + CCO + O | 0.0178

Give the reported solubility (g/100 g solution) for this compound. O=C1C=CC(=O)N1c1ccccc1Br + CCO + O
14.4

Please report solubility (g/100 g solution) for the following compound: O=c1cc(CBr)c2ccccc2[nH]1 + CCO + O
0.184
